# PROTOCOL_NOTES: NCI Yeast Anticancer Drug Screen. Data for the cln2 rad14 strain (AID 165);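 note: 0% = growth equal to vehicle treated cultures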
# CONDITION_DESCRIPTION: S. cerevisiae cln2 rad14 strain, at 50.0 µM, hits give high values
# Method: Growth inhibition of yeast strains with defined genetic alterations is measured as a screen for potential anti-cancer activity. Selected strains with alterations in DNA damage repair or cell cycle control were exposed to compounds and growth inhibition was measured relative to vehicle treated controls. The strain used in this assay is cln2 rad14
About 79,000 compounds went through this panel and 15% of them were active in at least one assay; those are over-represented in the sample as a whole.
ASSAY_METRIC: growth inhibition (%)
Answers are plain numbers, in %.

- MOLECULE: "C[C@]12CC[C@@H](OC(=O)N(CCCl)N=O)C[C@@H]1CC[C@@H]1[C@@H]2CC[C@]2(C)C(=O)CC[C@@H]12"
  MEASURED_NUMBER: -0.75
- MOLECULE: "[C-]#[O+].[C-]#[O+].[C-]#[O+].[W].c1ccc([PH+](CC[PH+](c2ccccc2)c2ccccc2)CC[PH+](c2ccccc2)c2ccccc2)cc1"
  MEASURED_NUMBER: 3.45
- MOLECULE: "CC(N)Cc1c[nH]c2ccccc12 (configuration not stated)"
  MEASURED_NUMBER: 20.6
- MOLECULE: "[Au].[NH-]CC[NH-].[NH-]CC[NH-]"
  MEASURED_NUMBER: -7.05
- MOLECULE: "[C-]#[O+].[C-]#[O+].[C-]#[O+].[C-]#[O+].[Fe].[N-]=C(C(F)(F)F)C(F)(F)F"
  MEASURED_NUMBER: -0.25

// each listed molecule needs a value for growth inhibition
1. CC(=O)OC1OC(CS[As](C)C)C(OC(C)=O)C(OC(C)=O)C1OC(C)=O (configuration not stated)
2. O=[N+]([O-])c1cc(S(=O)(=O)F)cc(Cl)c1O

Result:
1: 28.7; 2: -3.7
